- Tested On: AGTR1 (Homo sapiens, UniProt P30556)
- Construct: host or cells: Pathunter CHO-K1 AGTR1 β-arrestin cell line (CHO-K1)
- Sequence (P30556 1-359): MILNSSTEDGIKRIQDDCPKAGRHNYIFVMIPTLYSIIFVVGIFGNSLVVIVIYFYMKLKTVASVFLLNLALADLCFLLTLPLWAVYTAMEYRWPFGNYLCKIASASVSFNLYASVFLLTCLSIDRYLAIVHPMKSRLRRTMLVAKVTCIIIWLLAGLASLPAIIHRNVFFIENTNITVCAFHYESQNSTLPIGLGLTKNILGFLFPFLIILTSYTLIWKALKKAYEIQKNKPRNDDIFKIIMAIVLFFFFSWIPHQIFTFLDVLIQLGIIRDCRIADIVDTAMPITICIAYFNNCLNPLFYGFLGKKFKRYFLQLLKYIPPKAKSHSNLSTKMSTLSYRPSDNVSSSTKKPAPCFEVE
- Assay Procedure: DiscoveRx β-arrestin2 recruitment assay (enzyme complementation, Pathunter CHO-K1 AGTR1 β-arrestin cell line)
- Type: cell-based
- Conditions Used: DiscoveRx β-arrestin2 recruitment
Attribute Measured: EC50
Form field: result (number plus unit)

In the examples that follow, each entry is paired with its recorded EC50.
Compound: CCc1nc2c(C)cc(C)nc2n1Cc1ccc(-c2cc(C3CCCC3)ccc2-c2nn[nH]n2)cc1 [Example 80]
EC50: 0.0734 µM
//
Compound: CCCCc1nc(Cl)c(C(=O)O)n1Cc1ccc(-c2cc(N3CCCC(F)(F)C3)ccc2-c2nn[nH]n2)cc1 [Example 416]
EC50: 0.018 µM
//
Compound: CCCC(=O)N(Cc1ccc(-c2cc(-c3ccccc3)ccc2-c2nn[nH]n2)nc1)[C@H](C(=O)O)C(C)C [Example 432]
EC50: 0.0401 µM
//
Compound: CCCCc1ncc(C(=O)O)n1Cc1ccc(-c2cc(-c3ccccc3)ccc2C(=O)O)cc1 [Example 415]
EC50: 0.111 µM
//
Compound: CCCCC1=NC2(CCCC2)C(=O)N1Cc1ccc(-c2cc(-c3ccc(C(=O)N(C)C)cc3)ccc2-c2nn[nH]n2)cc1 [Example 133]
EC50: 0.0057 µM
//
Compound: CCc1nc2c(C)cc(C)nc2n1Cc1ccc(-c2cc(N3CCCC(F)(F)C3)ccc2-c2nn[nH]n2)cc1 [Example 83]
EC50: 0.0239 µM
//
Compound: CCCCc1ncc(C(=O)NCCC2CC2)n1Cc1ccc(-c2cc(-c3ccccc3)ccc2-c2nn[nH]n2)cc1 [Example 357]
EC50: 0.0196 µM
//
Compound: CCCCC1=NC2(CCOC2)C(=O)N1Cc1ccc(-c2cc(-c3cc(C)ccn3)ccc2-c2nnn[nH]2)cc1 (single isomer, unassigned) [Example 154]
EC50: 0.0141 µM

Read the next record carefully.
Qu. Give its EC50 value. Item: CCCCc1ncc(C(=O)NC2CCC2)n1Cc1ccc(-c2cc(-c3ccccc3)ccc2-c2nn[nH]n2)cc1 [Example 380]
Ans. 0.0592 µM

----------
Listed here are molecules together with their documented pEC50.
- Tested On: AGTR1 (Homo sapiens, UniProt P30556)
- Construct: host or cells: Pathunter CHO-K1 AGTR1 β-arrestin cell line (CHO-K1)
- Sequence (P30556 1-359): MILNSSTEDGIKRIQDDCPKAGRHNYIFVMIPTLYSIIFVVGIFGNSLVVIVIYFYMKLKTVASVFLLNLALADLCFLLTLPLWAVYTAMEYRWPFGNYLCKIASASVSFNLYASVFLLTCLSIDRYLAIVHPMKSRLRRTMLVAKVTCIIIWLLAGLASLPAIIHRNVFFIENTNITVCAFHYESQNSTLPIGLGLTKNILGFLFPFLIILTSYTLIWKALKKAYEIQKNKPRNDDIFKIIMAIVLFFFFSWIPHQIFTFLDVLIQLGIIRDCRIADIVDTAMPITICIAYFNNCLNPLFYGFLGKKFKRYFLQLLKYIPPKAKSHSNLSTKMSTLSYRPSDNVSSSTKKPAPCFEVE
- Assay Procedure: DiscoveRx β-arrestin2 recruitment assay (enzyme complementation, Pathunter CHO-K1 AGTR1 β-arrestin cell line)
- Format: cell-based
- Conditions Used: DiscoveRx β-arrestin2 recruitment
Give only the number. pEC50 is defined as minus log10 of concentration in molar units.

Some solved cases for reference:
Molecule: CCCCC1=NC2(CCCC2)C(=O)N1Cc1ccc(-c2cc(-c3cccs3)ccc2-c2nn[nH]n2)cc1
Tested On: AGTR1 (Homo sapiens, UniProt P30556)
pEC50: 7.86

Molecule: CCc1nc2c(C)cc(C)nc2n1Cc1ccc(-c2cc(-n3cccc3)ccc2-c2nn[nH]n2)cc1
Tested On: AGTR1 (Homo sapiens, UniProt P30556)
pEC50: 7.26

Molecule: CCc1nc2c(C)cc(C)nc2n1Cc1cnc(-c2cc(-c3cccc(C)c3)ccc2C(=O)O)nc1
Tested On: AGTR1 (Homo sapiens, UniProt P30556)
pEC50: 5.95

Molecule: CCc1nc2c(C)cc(C)nc2n1Cc1ccc(-c2cc(N3CCc4ccccc43)ccc2-c2nn[nH]n2)cc1
Tested On: AGTR1 (Homo sapiens, UniProt P30556)
pEC50: 7.90

Molecule: CCCCc1nc(Cl)c(C(=O)O)n1Cc1ccc(-c2cc(-c3ccc(C(=O)N(C)C)cc3)ccc2-c2nn[nH]n2)cc1
Tested On: AGTR1 (Homo sapiens, UniProt P30556)
pEC50: 7.93

Qu. Please look up its pEC50: CCCCc1nc(Cl)c(C(=O)O)n1Cc1ccc(-c2cc(-c3cccc4[nH]ccc34)ccc2-c2nn[nH]n2)cc1
Ans. 7.34

Qu. Now give it for CCCCC1=NC2(CCOC2)C(=O)N1Cc1ccc(-c2cc(-c3ccccc3O)ccc2-c2nnn[nH]2)cc1 (single isomer, unassigned) [Example 151] too.
Ans. 7.12

----------
Overview of reported DiscoveRx β-arrestin2 Ymax (%) across a group of molecules:
- Tested On: AGTR1 (Homo sapiens, UniProt P30556)
- Construct: host or cells: Pathunter CHO-K1 AGTR1 β-arrestin cell line (CHO-K1)
- Sequence (P30556 1-359): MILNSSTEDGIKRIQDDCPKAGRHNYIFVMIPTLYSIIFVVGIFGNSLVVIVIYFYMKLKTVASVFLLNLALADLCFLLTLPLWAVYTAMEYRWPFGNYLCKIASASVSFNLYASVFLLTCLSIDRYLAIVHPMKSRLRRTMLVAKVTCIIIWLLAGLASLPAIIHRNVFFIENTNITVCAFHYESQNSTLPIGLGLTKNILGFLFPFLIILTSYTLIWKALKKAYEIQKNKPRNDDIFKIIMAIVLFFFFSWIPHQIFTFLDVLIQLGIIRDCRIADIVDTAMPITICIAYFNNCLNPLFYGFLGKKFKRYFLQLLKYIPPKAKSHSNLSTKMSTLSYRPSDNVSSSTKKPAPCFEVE
- Assay Procedure: DiscoveRx β-arrestin2 recruitment assay (enzyme complementation, Pathunter CHO-K1 AGTR1 β-arrestin cell line)
- Format: cell-based
- Conditions Used: DiscoveRx β-arrestin2 recruitment, maximal response
- Method: In one aspect of the invention, signaling bias of compounds was assessed by comparing the relative activity of compounds to activate both the β-arrestin and Gq signaling pathways. In order to confirm signaling bias, compounds were studied in two different assay formats. DiscoveRx β-arrestin2 Recruitment and IP1 Assays β-arrestin2 recruitment to activated receptors can be assessed using an enzyme complementation method (Zhao, Jones et al. 2008). […]
# value in %; strip the unit string

Molecule: CCOc1nc2cccc(C(=O)O)c2n1Cc1ccc(-c2cc(N3CCCC(F)(F)C3)ccc2C(=O)O)cc1 [Example 315]
Quantity Unit: %
DiscoveRx β-arrestin2 Ymax (%): 21.5
--
Molecule: CCc1nc2c(C)cc(C)nc2n1Cc1ccc(-c2cc(-n3ccc(C)n3)ccc2-c2nnn[nH]2)cc1 [Example 218]
Quantity Unit: %
DiscoveRx β-arrestin2 Ymax (%): 21.5
--
Molecule: CCCc1nc(CC)c(C(=O)OCc2oc(=O)oc2C)n1Cc1ccc(-c2cc(-c3ccccc3)ccc2-c2nn[nH]n2)cc1 [Example 412]
Quantity Unit: %
DiscoveRx β-arrestin2 Ymax (%): 64.1
--
Molecule: CCOc1nc2cccc(C(=O)O)c2n1Cc1ccc(-c2cc(-c3cnn(C(F)F)c3)ccc2-c2nn[nH]n2)cc1 [Example 327]
Quantity Unit: %
DiscoveRx β-arrestin2 Ymax (%): 64.2

Qu. Form: Entry = CCc1nc2c(C)cc(C)nc2n1Cc1ccc(-c2cc(-c3cc(C)ccn3)ccc2-c2nn[nH]n2)cc1 [Example 64] | System = AGTR1 (Homo sapiens, UniProt P30556) | DiscoveRx β-arrestin2 Ymax (%) = ____
Ans. 67.8

Qu. What about CCc1nc2c(C)cc(C)nc2n1Cc1ccc(-c2cc(Oc3ccc(F)cc3F)ccc2-c2nnn[nH]2)cc1 [Example 208] ?
Ans. 44.8

Qu. Query CCOc1nc2cccc(C(=O)O)c2n1Cc1ccc(-c2cc(-c3cnc4ccccc4c3)ccc2-c2nn[nH]n2)cc1 [Example 326] next
Ans. 45.9

Qu. Now give it for CCCCC(=O)N(Cc1ccc(-c2cc(-c3ccccn3)ccc2-c2nn[nH]n2)cc1)C1(C(=O)O)CCCCC1 [Example 293] too.
Ans. 40.4

Qu. Input O=C(O)c1cccc2nc(O)n(Cc3ccc(-c4cc(-c5ccccc5)ccc4-c4nn[nH]n4)cc3)c12 [Example 317]
Ans. 51.5

Qu. Also need CCc1nc2c(C)cc(C)nc2n1Cc1ccc(-c2cc(N3CCC(F)(F)CC3)ccc2-c2nn[nH]n2)cc1 [Example 82] , thanks.
Ans. 16.8

Qu. Queued: CCCCC1=NC2(CCCC2)C(=O)N1Cc1ccc(-c2cc(N3CCC(C)(C)CC3)ccc2-c2nn[nH]n2)cc1 [Example 101]
Ans. 21.4

Qu. Subsequent entry: CCc1nc2c(C)cc(C)nc2n1Cc1ccc(-c2cc(Oc3cncc(OC)c3)ccc2-c2nn[nH]n2)cc1 [Example 261]
Ans. 17.3

Qu. One more molecule: CCCC1=NC2(CCOC2)C(=O)N1Cc1ccc(-c2cc(-c3ccccc3F)ccc2-c2nnn[nH]2)cc1 (single isomer, unassigned) [Example 161]
Ans. 40.7

Qu. Cool, now CCCCC1=NC2(CCCC2)C(=O)N1Cc1ccc(-c2cc(N3CC(C)(C)c4ccccc43)ccc2-c2nn[nH]n2)cc1 [Example 107]
Ans. 24.6

The measured values listed here are drawn from patent US12037324B2.
